Tested on: differentiated cells
Test: Inhibition of cell proliferation
Type: cell-based
Settings: read-out: IC50 inhibition of proliferation; insensitive differentiated cells
pIC50: −log10 of the molar value.
Property Label: pIC50

Q: Any idea what its pIC50 is? The compound is C(=N\Nc1nc(Nc2ccccc2)nc(N2CCOCC2)n1)/c1c[nH]c2ccccc12 [WX8]
A: < 4.00

---

Tested on: WA01/H1 ESC
Experiment: Live cells / PCD by FACS of nonpermeabilized cells stained with annexin-V and PI
Assay type: cell-based, human
Settings: read-out: IC50 Live Cells
Property Label: pIC50
Notebook: values listed as pIC50 are -log10 of the concentration (mol/L).

Q: I have this compound here, C(=N\Nc1nc(Nc2ccccc2)nc(N2CCOCC2)n1)/c1c[nH]c2ccccc12 , and I need its recorded pIC50.
A: 5.72

---

Tested on: NTERA-2 ECC
Experiment: Cells with <2N DNA by FACS of permeabilized cells stained with PI
Assay type: cell-based, human
Conditions: Homo sapiens, NTERA2, read-out: IC50 DNA (50% of cells with <2N DNA)
Property Label: pIC50
pIC50 is defined as minus the log10 of a concentration measured in mol/L.

Q: Sample Cc1cccc(/C=N/Nc2cc(N3CCOCC3)nc(OCCc3ccccn3)n2)c1 — what was its pIC50?
A: 6.40

---

Tested on: differentiated cells
Assay: ATP loss, summary over differentiated cell lines
Assay type: cell-based
Conditions: read-out: IC50 ATP loss, on average
Property Label: IC50 (µM)
Please give a number only; it is taken to be in µM.

Q: Can you share its IC50? I mean this molecule: C(=N\Nc1nc(Nc2ccccc2)nc(N2CCOCC2)n1)/c1c[nH]c2ccccc12
A: 15.8

---

Test system: HBEC normal lung epithelial
Experiment: Live cells / PCD by FACS of nonpermeabilized cells stained with annexin-V and PI
Format: cell-based, human
Conditions: read-out: IC50 Live Cells
Property Label: IC50 (µM)
Quick reminder: number only, in µM, skip the unit.

Q: Please report the recorded IC50 for C(=N\Nc1nc(Nc2ccccc2)nc(N2CCOCC2)n1)/c1c[nH]c2ccccc12 .
A: 140

---

Tested on: HFF-1 normal skin fibroblast
Test: Live cells / PCD by FACS of nonpermeabilized cells stained with annexin-V and PI
Assay type: cell-based, human
Settings: read-out: IC50 Live Cells; HFF-1
Property Label: pIC50
In textbook form, pIC50 equals minus log to base ten of the concentration in mol/L.

Q: For the molecule C(=N\Nc1nc(Nc2ccccc2)nc(N2CCOCC2)n1)/c1c[nH]c2ccccc12 , what pIC50 is on record?
A: 4.12

---

System: NTERA-2 ECC
Assay: Live cells / PCD by FACS of nonpermeabilized cells stained with annexin-V and PI
Assay type: cell-based, human
Conditions: read-out: IC50 Live Cells; NTERA-2 ECC, 4 days
Property Label: IC50
Just the number plus its unit, please.

Q: Fill blank: measured IC50 of the compound C(=N\Nc1nc(Nc2ccccc2)nc(N2CCOCC2)n1)/c1c[nH]c2ccccc12 [WX8] is ____.
A: 1300 nM

---

Tested on: VeroE6 normal kidney epithelial
Assay: Cellular ATP level
Format: cell-based, monkey
Details: read-out: IC50 ATP
Property Label: pIC50
API: returns pIC50 as number; meaning -log10 of concentration in mol/L.

Q: Form field: reported pIC50 of C(=N\Nc1nc(Nc2ccccc2)nc(N2CCOCC2)n1)/c1c[nH]c2ccccc12
A: 4.85

Values were extracted from paper PMC8828683.
